- Tested on: MS2 coat protein
- Protocol summary: apparent KD of MS2 coat protein; designed switch direction (-1 OFF switch, 1 ON switch): 1; higher = weaker reporter binding
- Stated conditions: Eterna round: R98; input ligand: FMN 200 uM
Would you mind telling me the reported apparent KD of MS2 coat protein of each entry?
Please reply with the bare figure in nM and do not write the unit itself.

# input Give apparent KD of MS2 coat protein only, for AAAACAUGAGGAUCACCCAUGUAAAGAUCGGUUAUUAAAAGUGAGGAUAUACAAAAUUUUAUAUAGUAGAAGGCACUGGGUACA [JR_SSNG3_Sub001] , using MS2 coat protein data.
# output 28.9

# input Give apparent KD of MS2 coat protein only, for GCUCUCACUUGAGGAUAUCGAGUGGAAUACACUCGAGAAGGCAGGAAAACCUGAGGAUCACCCAGGUAACUGGAAAGAGAGCAA [Same State NG1 - A3C, U17G Submission 5G-G46A] , using MS2 coat protein data.
# output 20.3

# input Give apparent KD of MS2 coat protein only, for GGACAUCCCACAGGAUAUGCUGGACUUUGUCCAGCAGAAGGGUGAAACAUGAGGAUCACCCAUGUAAGGAUGUCCAUAUUUAAU [Denovo 40] , using MS2 coat protein data.
# output 217

# input Give apparent KD of MS2 coat protein only, for CCGAUGCAAAUAAAACAUGAGGAUCACCCAUGUGAGUCUCAUGAGGAUAUGCAGGUCUUUGACUUGCAGAAGGCAUGGCGUCGG [Mat - Same State NG 3 - JL Mod - D70] , using MS2 coat protein data.
# output 138

# input Give apparent KD of MS2 coat protein only, for GUAGCAUACUGAGGAUAUUCAUAUAAUAAAUAAACAUGAGGAUCACCCAUGUGGCGAAAGCCUUGGGAGAAGGCAGAAUGCUAC [Xeonanis 55 7] , using MS2 coat protein data.
# output 38.3

# input Give apparent KD of MS2 coat protein only, for GCUGUCGCAUGAGGAUAUGGUCACGUUUCGUGACCAGAAGGCAUGUCAAUAGACAUGAGGAUCACCCAUGUAGUAAAGACAGCA [Mat - Same State NG 1 - JL Mod - D40] , using MS2 coat protein data.
# output 35.1

# input Give apparent KD of MS2 coat protein only, for UUUGGGAGCACAGGAUAUGGCACCUCGACCGUGCCAGAAGGGUGAUUCUGUUGGUGGCCACAUGAGGAUCACCCAUGUGCCUCC [Araterin] , using MS2 coat protein data.
# output 21.5

# input Give apparent KD of MS2 coat protein only, for GACGAAAUCUUAGGAUAUCGAGUGGAAUACACUCGAGAAGGAAGAUAUACCUGAGGAUCACCCAGGUAAAACUGGACGUCAAUA [Same State NG1 - A3C, U17G Submission 8H U68A, U7A] , using MS2 coat protein data.
# output 26.6

# input Give apparent KD of MS2 coat protein only, for GUGCACAUUCGAGGAUAUCGGAGAGGAGUCCUUCGAGAAGGCGAUUCAUGCUGUGUUAUUCUGGACAUGAGGAUCACCCAUGUG [LRO019_SS NG 1 mod JR_SSNG1_Sub034] , using MS2 coat protein data.
# output 107

# input Give apparent KD of MS2 coat protein only, for UAACUAAUAUACACAUGAGGAUCACCCAUGUCCACCCGUGGACAGGAUAUCUGGCCGCGCCGGCUGGAGAAGGGUCCGUAUUGU [Arianesge] , using MS2 coat protein data.
# output 172

# input Give apparent KD of MS2 coat protein only, for GCACUCAAGUUAGGAUAUGGAUCGGAAAACGAUCCAGAAGGAACAUGAAAACAUGAGCAUCAGCCAUGUUCCAGAAACGAGUGC [SameSame 13 - Jieux - Same State NG 1] , using MS2 coat protein data.
# output 22.8

# input Give apparent KD of MS2 coat protein only, for GUAGCUAUCGGAGGAUAUUCAUAGCCGAGAGGCACAUGAGGAUCACCCAUGUGCGGAAACGCUUGGGAGAAGGCCGAUAGCUAC [Mat - Same State NG 2 - JL Mod - D77] , using MS2 coat protein data.
# output 14.3

# input Give apparent KD of MS2 coat protein only, for GCAGAAGGUGCGGAGGAUCACCCUGUAAGGAUAUGCAUUAGCAAGGAUAUACAGAGGAUCACCCUGUAGAAGGUGCACUUCUAA [pwkr2 ssNG3 DX.7] , using MS2 coat protein data.
# output 1290

# input Give apparent KD of MS2 coat protein only, for CCACAACAUUGAGGAUAUGCACAGGAUCACCGUGUAGAAGGCAUCAGGGAGAAGGUGCAGAGGAUCACCCUGUAAGGAUAUCUA [pwkr2 ssNG1 DX.8] , using MS2 coat protein data.
# output 133
